tested on: HCT116; assay: efficacy (fitted maximal change in viability relative to DMSO control); higher = less cytotoxic (negative = loss of viability); conditions: 48 h
Each entry below carries its reported efficacy.
Number plus unit, in that order.

compound: CC(=O)c1cc2c(o1)C(=O)c1ccccc1C2=O [Napabucasin]
test.target: HCT116
efficacy: -93.8%

compound: COc1cc(F)ccc1-c1ncnc(Nc2cccc(C[S+](C)(=N)[O-])c2)n1 (stereo not drawn) [Atuveciclib]
test.target: HCT116
efficacy: -68%

compound: CCC(=O)NCC[C@@H]1CCc2ccc3c(c21)CCO3 [Ramelteon]
test.target: HCT116
efficacy: -25.2%

compound: O=[N+]([O-])c1cn2c(n1)OC[C@@H](OCc1ccc(OC(F)(F)F)cc1)C2 [PA-824]
test.target: HCT116
efficacy: -19.8%

Test system HCT116; read-out efficacy; what value for COc1nc(OCc2cccc(-c3ccccc3)c2C)ccc1CNCCNC(C)=O [BMS-202] ?
-89.9%

Give recorded efficacy with HCT116 for the following compound: "COc1ccc(-c2ccc3c(N4CCOCC4)nc(N4C[C@@H](C)O[C@@H](C)C4)nc3n2)cc1CO"
-45.6%

API: value(readout= efficacy, system= HCT116, query= FC(F)(F)c1ccc(Nc2nc3cc(Oc4ccnc(-c5ncc(C(F)(F)F)[nH]5)c4)ccc3[nH]2)cc1 [RAF-265 derivative] )
-84.8%

Item CCOCc1nc2c(N)nc3ccccc3c2n1CC(C)(C)O [Resiquimod] with HCT116 - efficacy?
-14.3%

---

system: HCT116; assay: AC50 cell viability (CellTiter-Glo); higher = less potent; details: 48 h
# label = class 1 if AC50 cell viability < 0.4 µM else class 0

Completed entries (count: 10):
molecule: Cc1[nH]c2ccccc2c1CCNCc1ccc(/C=C/C(=O)NO)cc1
test.target: HCT116
label: class 1

molecule: COc1cc(N2CCC(O)CC2)ccc1Nc1cc(Nc2ccccc2[S+](=O)([O-])C(C)C)c2cc[nH]c2n1
test.target: HCT116
label: class 0

molecule: COc1ccc([S+](=O)([O-])N(CCO)c2ccccc2CN(C)C/C=C/c2ccc(Cl)cc2)cc1
test.target: HCT116
label: class 0

molecule: CCOC(=O)c1c(CSc2ccccc2)n(C)c2cc(Br)c(O)c(CN(C)C)c12
test.target: HCT116
label: class 0

molecule: CC(C)C1NC(=O)C(NC(=O)C2=C3\N=C\4/C(=C(C)\C(=O)\C(=C4C(=O)NC5C(C)OC(=O)C(C(C)C)N(C)C(=O)CN(C)C(=O)C6CCCN6C(=O)C(NC5=O)C(C)C)N)OC3=C(C)C=C2)C(C)OC(=O)C(C(C)C)N(C)C(=O)CN(C)C(=O)C7CCCN7C1=O (centres undefined)
test.target: HCT116
label: class 1

molecule: CC(C)(O)CC(=O)NCCn1ccc2ncnc(Nc3ccc(Oc4cccc(C(F)(F)F)c4)c(Cl)c3)c21
test.target: HCT116
label: class 0

molecule: C[C@H]1[C@H](OC(=O)CCC(=O)O)O[C@@H]2O[C@@]3(C)CC[C@H]4[C@H](C)CC[C@@H]1[C@@]24OO3 [Artesunate]
test.target: HCT116
label: class 0

molecule: N[S+](=O)([O-])OC[C@@H]1C[C@@H](n2ccc3c(N[C@H]4CCc5ccccc54)ncnc32)C[C@@H]1O
test.target: HCT116
label: class 1

molecule: Cc1cc(-c2ncc(CC(=O)Nc3ccc(-c4cnccn4)cn3)cc2C)ccn1
test.target: HCT116
label: class 0

molecule: Cc1cc(-c2cnn3c(NC[C@H]4C[C@@](C)(O)C4)cc(Oc4cccnc4)nc23)ccc1C(=O)NC1CC1
test.target: HCT116
label: class 0

Check if AC50 cell viability falls below 0.4 µM for "CC[S+](=O)([O-])c1cccc(-c2cc(C(=O)NC3CCN(C)CC3)c(C)c3[nH]c4ncc(C)cc4c23)c1" .
class 0

Given the entry "COc1cccc(Nc2ncnn3ccc(CN4CC[C@@H](N)[C@H](O)C4)c23)c1" , would its reported AC50 cell viability be below 0.4 µM?
class 0

Quick check: does Cc1ccc(C(C)(O)c2nc3ccccc3s2)c(C)c1 (centres undefined) have AC50 cell viability under 0.4 µM?
class 0

is_below(AC50 cell viability, 0.4 µM) for "C#Cc1cccc(Nc2ncnc3cc(OC)c(OCCCCCCC(=O)NO)cc23)c1" ?
class 1
